target: ATP-binding cassette transporter A1 (ABCA1) (UniProt P41233 1-2261, limits assumed); assay: cell-based or functional assay; further: test concentration or dose not given here
Sequence (P41233 whole entry): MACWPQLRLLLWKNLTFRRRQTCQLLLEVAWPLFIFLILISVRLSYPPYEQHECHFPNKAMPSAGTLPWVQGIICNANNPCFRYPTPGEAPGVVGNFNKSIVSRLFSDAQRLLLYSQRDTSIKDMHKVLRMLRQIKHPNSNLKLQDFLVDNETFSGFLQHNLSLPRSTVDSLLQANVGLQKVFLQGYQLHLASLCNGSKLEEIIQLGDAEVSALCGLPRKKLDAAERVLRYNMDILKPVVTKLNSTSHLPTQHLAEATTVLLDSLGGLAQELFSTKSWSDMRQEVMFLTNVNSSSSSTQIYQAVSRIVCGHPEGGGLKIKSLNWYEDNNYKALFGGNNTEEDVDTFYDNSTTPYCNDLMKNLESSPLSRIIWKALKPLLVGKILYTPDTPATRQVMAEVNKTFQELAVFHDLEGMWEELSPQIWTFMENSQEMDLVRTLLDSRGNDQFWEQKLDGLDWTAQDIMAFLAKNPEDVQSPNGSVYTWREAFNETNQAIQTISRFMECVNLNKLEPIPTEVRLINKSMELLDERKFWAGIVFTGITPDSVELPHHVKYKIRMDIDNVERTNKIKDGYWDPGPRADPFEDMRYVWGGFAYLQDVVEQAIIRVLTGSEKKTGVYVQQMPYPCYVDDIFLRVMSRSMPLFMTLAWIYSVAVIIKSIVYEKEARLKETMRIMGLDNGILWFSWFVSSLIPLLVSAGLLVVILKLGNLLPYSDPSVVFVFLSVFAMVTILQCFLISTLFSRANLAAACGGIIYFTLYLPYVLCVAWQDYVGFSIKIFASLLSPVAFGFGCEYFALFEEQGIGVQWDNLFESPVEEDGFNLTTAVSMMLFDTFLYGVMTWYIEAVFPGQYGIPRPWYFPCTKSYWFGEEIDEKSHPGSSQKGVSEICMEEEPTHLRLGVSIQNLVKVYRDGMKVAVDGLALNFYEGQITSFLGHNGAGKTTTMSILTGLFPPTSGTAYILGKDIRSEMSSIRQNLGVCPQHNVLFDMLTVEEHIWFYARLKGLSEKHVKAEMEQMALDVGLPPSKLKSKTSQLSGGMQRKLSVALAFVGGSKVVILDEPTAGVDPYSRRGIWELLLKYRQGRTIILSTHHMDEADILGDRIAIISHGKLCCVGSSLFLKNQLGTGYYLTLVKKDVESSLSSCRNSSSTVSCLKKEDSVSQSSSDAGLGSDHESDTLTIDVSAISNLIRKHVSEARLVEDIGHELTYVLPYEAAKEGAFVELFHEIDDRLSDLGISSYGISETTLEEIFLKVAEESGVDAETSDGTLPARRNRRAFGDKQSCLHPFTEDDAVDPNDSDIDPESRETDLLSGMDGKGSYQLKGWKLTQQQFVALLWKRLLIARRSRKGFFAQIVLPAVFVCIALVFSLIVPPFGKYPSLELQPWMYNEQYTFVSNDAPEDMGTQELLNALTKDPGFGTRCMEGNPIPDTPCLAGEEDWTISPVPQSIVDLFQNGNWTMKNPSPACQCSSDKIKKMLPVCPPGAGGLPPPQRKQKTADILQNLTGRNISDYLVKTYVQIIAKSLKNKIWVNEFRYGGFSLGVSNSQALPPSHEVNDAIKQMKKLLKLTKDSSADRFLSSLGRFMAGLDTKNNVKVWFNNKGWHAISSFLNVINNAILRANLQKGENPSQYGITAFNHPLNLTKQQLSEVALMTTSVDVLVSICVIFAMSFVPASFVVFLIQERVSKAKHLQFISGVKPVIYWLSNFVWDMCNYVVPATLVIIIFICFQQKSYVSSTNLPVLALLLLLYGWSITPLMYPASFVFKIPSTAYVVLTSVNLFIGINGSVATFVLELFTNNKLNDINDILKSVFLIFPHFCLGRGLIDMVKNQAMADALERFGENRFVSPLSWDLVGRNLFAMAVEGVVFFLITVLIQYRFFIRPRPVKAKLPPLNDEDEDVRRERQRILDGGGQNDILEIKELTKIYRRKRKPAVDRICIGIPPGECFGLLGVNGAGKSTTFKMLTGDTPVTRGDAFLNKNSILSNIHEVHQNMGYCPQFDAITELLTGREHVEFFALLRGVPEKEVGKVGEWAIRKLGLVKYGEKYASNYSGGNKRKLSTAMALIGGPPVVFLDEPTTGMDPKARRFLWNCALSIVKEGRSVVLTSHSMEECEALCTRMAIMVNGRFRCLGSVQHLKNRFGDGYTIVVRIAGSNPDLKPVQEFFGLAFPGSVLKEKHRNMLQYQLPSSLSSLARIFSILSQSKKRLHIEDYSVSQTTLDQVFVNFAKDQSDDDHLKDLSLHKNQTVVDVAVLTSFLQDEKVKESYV
Parameter % cholesterol efflux/8 hours, No cAMP: see the listing below.
Unit % implied. Number only.

Solved cases (5 shown):
binder | % cholesterol efflux/8 hours, No cAMP (%)
DLRDRLDAWLDLLRDLLDRL [N1154-11] | 4.2
ELRDRLEAWLDLLRELLERL [N1154-10] | 2.66
DLRDKLDAWLDLLRDLLDRL [N1154-9] | 1.81
ELREKLEAWLELLRELLERL [N1154-6] | 1.17
ELRDKLEAWLDLLRELLERL [N1154-8] | 1.31

Proceed to the following item.
Would you mind telling me what % cholesterol efflux/8 hours, No cAMP value was observed for ELRERLEAWLELLRELLERL [N1154-7] ?
1.23
